Values were extracted from paper PMC8699473.

- protocol-summary: Short-term stability in spiked pooled human plasma (bench-top, 4 °C, 56 °C)
- run-parameters: validation standard MOV
Documented Short-time stability (24h, 4°C, without daylight) Accuracy [%] across a set of molecules
outcome-measure: Short-time stability (24h, 4°C, without daylight) Accuracy [%] (%)

molecule: Cc1ccc(Nc2nccc(N(C)c3ccc4c(C)n(C)nc4c3)n2)cc1S(N)(=O)=O
value-unit: %
numeric-value: 97.8
--
molecule: C[C@]12CC[C@H](O)CC1=CC[C@@H]1[C@@H]2CC[C@]2(C)C(c3cccnc3)=CC[C@@H]12
value-unit: %
numeric-value: 97.4
--
molecule: CNC(=O)c1cc(Oc2ccc(NC(=O)Nc3ccc(Cl)c(C(F)(F)F)c3)cc2)ccn1
value-unit: %
numeric-value: 98.2
--
molecule: COc1cc2ncnc(Nc3ccc(F)c(Cl)c3)c2cc1NC(=O)/C=C/CN1CCCCC1
value-unit: %
numeric-value: 97.9
--
molecule: Cc1c(C(=O)Nc2ccc(N3C[C@@H](C)O[C@@H](C)C3)nc2)cccc1-c1ccc(OC(F)(F)F)cc1
value-unit: %
numeric-value: 98.4
--
molecule: C#Cc1cccc(Nc2ncnc3cc(OCCOC)c(OCCOC)cc23)c1
value-unit: %
numeric-value: 98.0
--
molecule: COC(=O)N[C@@H](C)CNc1nccc(-c2cn(C(C)C)nc2-c2cc(Cl)cc(NS(C)(=O)=O)c2F)n1
value-unit: %
numeric-value: 102.1
--
molecule: Cc1cc(Nc2ncc(Cl)c(Nc3ccccc3S(=O)(=O)C(C)C)n2)c(OC(C)C)cc1C1CCNCC1
value-unit: %
numeric-value: 93.9
--
molecule: CCN1CCN(Cc2ccc(Nc3ncc(F)c(-c4cc(F)c5nc(C)n(C(C)C)c5c4)n3)nc2)CC1
value-unit: %
numeric-value: 104.5
--
molecule: COc1cc2nccc(Oc3ccc(NC(=O)Nc4cc(C)on4)c(Cl)c3)c2cc1OC
value-unit: %
numeric-value: 100.8
--
molecule: CS(=O)(=O)c1ccc(C(=O)Nc2ccc(Cl)c(-c3ccccn3)c2)c(Cl)c1
value-unit: %
numeric-value: 105.3
--
molecule: C[C@H]1Oc2cc(cnc2N)-c2c(nn(C)c2C#N)CN(C)C(=O)c2ccc(F)cc21
value-unit: %
numeric-value: 101.8
--
molecule: CS(=O)(=O)CCNCc1ccc(-c2ccc3ncnc(Nc4ccc(OCc5cccc(F)c5)c(Cl)c4)c3c2)o1
value-unit: %
numeric-value: 97.9
--
molecule: O=C1CN2Cc3c(ccc(Cl)c3Cl)N=C2N1 [Anagrelide]
value-unit: %
numeric-value: 96.9
--
molecule: COc1cc(N2CCC(N3CCN(C)CC3)CC2)ccc1Nc1ncc(Cl)c(Nc2ccccc2P(C)(C)=O)n1
value-unit: %
numeric-value: 104.2
--
molecule: CNC(=O)c1cc(Oc2ccc(NC(=O)Nc3ccc(Cl)c(C(F)(F)F)c3)c(F)c2)ccn1
value-unit: %
numeric-value: 104.6
